Target: C-X-C chemokine receptor type 4 (Homo sapiens, UniProt P61073)
Sequence (P61073 whole entry): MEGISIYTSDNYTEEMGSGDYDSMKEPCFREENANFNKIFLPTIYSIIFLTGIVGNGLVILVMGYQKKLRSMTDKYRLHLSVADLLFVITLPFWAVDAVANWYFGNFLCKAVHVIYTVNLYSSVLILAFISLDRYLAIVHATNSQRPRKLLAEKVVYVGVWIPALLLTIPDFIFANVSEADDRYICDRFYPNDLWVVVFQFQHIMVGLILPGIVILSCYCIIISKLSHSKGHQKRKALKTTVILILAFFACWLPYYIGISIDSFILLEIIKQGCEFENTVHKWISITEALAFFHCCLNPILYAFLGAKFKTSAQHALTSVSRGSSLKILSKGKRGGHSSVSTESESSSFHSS
Assay: Inhibition of CXCR4 expressed in human CAL1 cells assessed as reduction in SDF1alpha-induced intracellular calcium ion concentration preincubated for 45 mins followed by SDF1alpha addition
Quantity name: IC50 (µM)

Compound	Limit operator	Numeric result
CCCCN(Cc1ccc(-c2ccccc2-c2nnn[nH]2)cc1)c1nc2cc(Cl)cc(Cl)c2o1	=	2.9
c1ccc(CN(Cc2ccc(-c3ccccc3-c3nnn[nH]3)cc2)c2nc3ccccc3o2)nc1	>	10
CCCCN(c1nc2cc(NC(=O)N(C)C)ccc2o1)[C@H](C)c1ccc(-c2ccccc2-c2nnn[nH]2)cc1	>	10
CCCCN(c1nc2cc(CC(=O)NC)ccc2o1)[C@H](C)c1ccc(-c2ccccc2-c2nnn[nH]2)cc1	>	10
c1ccc(CN(Cc2ccc(-c3ccccc3-c3nnn[nH]3)cc2)c2nc3ccccc3o2)cc1	=	9.6
COCCN(Cc1ccc(-c2ccccc2-c2nnn[nH]2)cc1)c1nc2ccccc2o1	>	10
CCCCN(c1nc2ccccc2o1)[C@H](C)c1ccc(-c2ccccc2-c2nnn[nH]2)cc1	=	8.7
CCCCN(c1nc2cc(C(=O)NC)ccc2o1)[C@H](C)c1ccc(-c2ccccc2-c2nnn[nH]2)cc1	>	10
CCCCN(Cc1ccc(-c2ccccc2-c2nnn[nH]2)cc1)c1nc2cc(CC(=O)NC)ccc2o1	>	10
CCCCN(Cc1ccc(-c2ccccc2-c2nnn[nH]2)cc1)c1nc2ccccc2o1	=	9.7
CCCCN(Cc1ccc(-c2ccccc2-c2nnn[nH]2)cc1)c1nc2cc(C(=O)OC)ccc2o1	>	10
CCCCN(c1nc2cc(CNC(=O)NC)ccc2o1)[C@H](C)c1ccc(-c2ccccc2-c2nnn[nH]2)cc1	>	10
c1ccc(-c2nnn[nH]2)c(-c2ccc(CN(CC3CCCC3)c3nc4ccccc4o3)cc2)c1	=	3.5
CCCCN(Cc1ccc(-c2ccccc2-c2nnn[nH]2)cc1)c1nc2cc(C)ccc2o1	=	8.6
CCCCCN(Cc1ccc(-c2ccccc2-c2nnn[nH]2)cc1)c1nc2ccccc2o1	=	5.6
c1cncc(CN(Cc2ccc(-c3ccccc3-c3nnn[nH]3)cc2)c2nc3ccccc3o2)c1	>	10
CCCCN(c1nc2cc(NC(C)=O)ccc2o1)[C@H](C)c1ccc(-c2ccccc2-c2nnn[nH]2)cc1	>	10
CCCCN(Cc1ccc(-c2ccccc2-c2nnn[nH]2)cc1)c1nc2cc(CC(=O)OC)ccc2o1	>	10
CCCCN(c1nc2cc(NC(=O)NC)ccc2o1)[C@H](C)c1ccc(-c2ccccc2-c2nnn[nH]2)cc1	>	10
CCCCN(Cc1ccc(-c2ccccc2-c2nnn[nH]2)cc1)c1nc2cc(Cl)cc(C)c2o1	=	3.9
CCCCN(c1nc2ccccc2o1)[C@@H](C)c1ccc(-c2ccccc2-c2nnn[nH]2)cc1	=	9.9
c1ccc(-c2nnn[nH]2)c(-c2ccc(CN(Cc3ccncc3)c3nc4ccccc4o3)cc2)c1	>	10
CCCCN(c1nc2cc(NC(N)=O)ccc2o1)[C@H](C)c1ccc(-c2ccccc2-c2nnn[nH]2)cc1	>	10
CCCCN(c1nc2ccccc2o1)C(C)c1ccc(-c2ccccc2-c2nnn[nH]2)cc1 (racemic)	=	8.8
CCCCN(c1nc2ccccc2o1)C(c1ccc(-c2ccccc2-c2nnn[nH]2)cc1)C1CC1 (stereo not drawn)	>	3
CCCCN(c1nc2ccccc2o1)C(C)(C)c1ccc(-c2ccccc2-c2nnn[nH]2)cc1	>	10
CCCCN(Cc1ccc(-c2ccccc2-c2nnn[nH]2)cc1)c1nc2cc(Cl)c(C)cc2o1	=	5.5
CCCCN(c1nc2ccccc2o1)C(CC)c1ccc(-c2ccccc2-c2nnn[nH]2)cc1 (stereo not drawn)	=	8.8
